- STUDY SYSTEM: menin-MLL interaction (Homo sapiens, UniProt O00255)
- Sequence (O00255 whole entry): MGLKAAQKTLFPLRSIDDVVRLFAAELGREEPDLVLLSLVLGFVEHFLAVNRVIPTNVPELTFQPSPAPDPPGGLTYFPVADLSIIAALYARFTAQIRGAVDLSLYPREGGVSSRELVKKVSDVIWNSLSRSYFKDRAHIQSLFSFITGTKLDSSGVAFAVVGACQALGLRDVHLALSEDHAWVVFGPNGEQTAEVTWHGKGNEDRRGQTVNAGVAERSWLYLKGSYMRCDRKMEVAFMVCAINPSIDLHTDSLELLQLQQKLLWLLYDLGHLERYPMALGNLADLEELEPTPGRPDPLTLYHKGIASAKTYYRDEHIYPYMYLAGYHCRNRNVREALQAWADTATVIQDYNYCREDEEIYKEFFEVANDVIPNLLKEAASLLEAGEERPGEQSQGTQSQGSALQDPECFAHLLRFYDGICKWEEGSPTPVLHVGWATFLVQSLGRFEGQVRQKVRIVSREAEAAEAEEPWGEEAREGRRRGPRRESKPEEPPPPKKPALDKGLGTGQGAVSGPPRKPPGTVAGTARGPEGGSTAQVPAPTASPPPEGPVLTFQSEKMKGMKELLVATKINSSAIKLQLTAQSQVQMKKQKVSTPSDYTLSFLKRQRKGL
- METHOD NOTES: biochemical
Answer each item with its documented IC50.

{"COMPOUND": "FC(F)(F)Cc1cc2c(N[C@H]3CCN(Cc4ccccc4)C[C@@H]3NCc3ccccc3)ncnc2s1", "IC50": "0.1 to 0.5 µM"}
{"COMPOUND": "OCc1c(CC(F)(F)F)sc2ncnc(NC3CCN(Cc4ccccc4)CC3)c12", "IC50": "0.1 to 0.5 µM"}
{"COMPOUND": "N#Cc1cc2cc(CN3CCC(Nc4ncnc5sc(CC(F)(F)F)cc45)CC3)ccc2n1CO", "IC50": "< 0.1 µM"}
{"COMPOUND": "CC1(C)CN=C(N2CCN(c3ncnc4sc(CCCC(F)(F)F)cc34)CC2)S1", "IC50": "0.5 to 2 µM"}
{"COMPOUND": "CN(c1ccc(CC(=O)N2CCN(C3=NC=NC4SC(CC(F)(F)F)=CC34)CC2)c(Cl)c1)S(C)(=O)=O (centres unmarked)", "IC50": "< 0.1 µM"}
{"COMPOUND": "N#Cc1cc2cc(CN3CCC(Nc4ncnc5sc(CC(F)(F)F)cc45)CC3)ccc2n1CC(O)(CO)COCC1CCCCC1 (centres unmarked)", "IC50": "< 0.1 µM"}

Record IC50 per entry; entries follow.
1. Cc1ncc(Cn2c(C#N)cc3c(C)c(CN4CCC(Nc5ncnc6sc(CC(F)(F)F)cc56)CC4)ccc32)[nH]1
2. FC(F)(F)Cc1cc2c(N[C@H]3CCN(Cc4ccccc4)C[C@@H]3NCCc3ccccc3)ncnc2s1

Result ::
["< 0.1 µM", "0.1 to 0.5 µM"]

Quick request: IC50 for each listed item, please.
1. Cc1c(CN2CCC(Nc3ncnc4sc(CC(F)(F)F)cc34)CC2)ccc2c1cc(C#N)n2CCO
2. Cc1c(CN2CCC(Nc3ncnc4sc(CC(F)(F)F)cc34)CC2)ccc2c1cc(C#N)n2CC(O)(CO)CCn1ccnn1 (centres unmarked)
3. N#Cc1cc2cc(CN3CCC(Nc4ncnc5sc(CC(F)(F)F)cc45)CC3)ccc2n1Cc1ncon1

Result ::
1. < 0.1 µM
2. < 0.1 µM
3. < 0.1 µM

Lab note: each compound below needs its IC50 filled in.
1. CC1(C)CN=C(N2CCN(c3ncnc4sc(CCC5CC5)cc34)CC2)S1
2. FC(F)(F)Cc1cc2c(N(NCc3ccccc3)C3CCN(Cc4ccccc4)CC3)ncnc2s1
3. OCCNN(c1ncnc2sc(CC(F)(F)F)cc12)C1CCN(Cc2ccccc2)CC1
4. COCC(O)Cn1c(C#N)cc2cc(CN3CCC(Nc4ncnc5sc(CC(F)(F)F)cc45)CC3)ccc21 (centres unmarked)
5. N#Cc1cc2cc(CN3CCC(Nc4ncnc5sc(CC(F)(F)F)cc45)CC3)ccc2n1CCN1CCNCC1
6. CS(=O)(=O)OCCn1c(C#N)cc2cc(CN3CCC(Nc4ncnc5sc(CC(F)(F)F)cc45)CC3)ccc21
7. CCCc1cc2c(NC3CCN(Cc4ccccc4Cl)CC3)ncnc2s1

Result ::
1. 0.5 to 2 µM
2. 0.1 to 0.5 µM
3. 0.1 to 0.5 µM
4. 0.1 to 0.5 µM
5. < 0.1 µM
6. < 0.1 µM
7. 0.5 to 2 µM

Could you report IC50 for every entry in the following list?
1. FC(F)(F)c1nnc(N2CCN(c3ncnc4sc(C5CC5)cc34)CC2)s1
2. Cc1c(CN2CCC(Nc3ncnc4sc(CC(F)(F)F)cc34)CC2)ccc2c1cc(C#N)n2CCN1CCN(C(=O)Cc2ccccc2)CC1
3. N#Cc1cc2cc(CN3CCC(Nc4ncnc5sc(CC(F)(F)F)cc45)CC3)ccc2n1Cc1cc(OCC2CC2)n[nH]1

Result ::
1: 0.5 to 2 µM; 2: < 0.1 µM; 3: < 0.1 µM

Give IC50 for each listed item.
1. CCCC(c1ccc(CC(=O)N2CCN(c3ncnc4sc(CC(F)(F)F)cc34)CC2)cc1)S(C)(=O)=O (centres unmarked)
2. N#Cc1cc2cc(CN3CCC(Nc4c(COCC5CCCC5)cnc5sc(CC(F)(F)F)cc45)CC3)ccc2[nH]1
3. N#Cc1cc2c(CO)c(CN3CCC(Nc4ncnc5sc(CC(F)(F)F)cc45)CC3)ccc2[nH]1
4. CC(C)c1cc2c(N3CCN(c4nnc(C(F)(F)F)s4)CC3)ncnc2s1
5. OCCC(F)(F)Cc1cc2c(NC3CCN(Cc4ccccc4)CC3)ncnc2s1
6. N#Cc1cc2cc(CN3CCC(Nc4ncnc5sc(CC(F)(F)F)cc45)CC3)ccc2n1CC(CO)OC(F)F (centres unmarked)
7. N#Cc1cc2cc(CN3CCC(Nc4ncnc5sc(CC(F)(F)F)cc45)CC3)ccc2n1Cc1cc(OCCCC2CCCC2)n[nH]1

Result ::
0.5 to 2 µM
0.5 to 2 µM
< 0.1 µM
0.5 to 2 µM
0.5 to 2 µM
< 0.1 µM
0.1 to 0.5 µM

The recorded IC50 for entry Cc1ccc(CN2CCC(Nc3ncnc4sc(CC(F)(F)F)cc34)CC2)c(C)c1 equals 0.1 to 0.5 µM

* * *

- STUDY SYSTEM: menin-MLL interaction (Homo sapiens, UniProt O00255)
- METHOD NOTES: biochemical
pIC50: −log10 of the molar value.
MEASURED QUANTITY: pIC50

{"SMILES INPUT": "CN1CCC(N2CCN(c3ncnc4sc(CC(F)(F)F)cc34)CC2)CC1", "OBSERVED VALUE": "5.70 to 6.30"}
{"SMILES INPUT": "CCCc1cc2c(NC3CCN(Cc4ccccc4)CC3)ncnc2s1", "OBSERVED VALUE": "5.70 to 6.30"}
{"SMILES INPUT": "Cc1c(CN2CCC(Nc3ncnc4sc(CC(F)(F)F)cc34)CC2)ccc2c1cc(C#N)n2CCn1cncn1", "OBSERVED VALUE": "> 7.00"}
{"SMILES INPUT": "N#Cc1cc2cc(CN3CCC(Nc4c(COCc5cc[nH]n5)cnc5sc(CC(F)(F)F)cc45)CC3)ccc2[nH]1", "OBSERVED VALUE": "5.70 to 6.30"}

Below is a list of compounds. For each, state its recorded pIC50.
1. N#Cc1cc2c(Cl)c(CN3CCC(Nc4ncnc5sc(CC(F)(F)F)cc45)CC3)ccc2n1CC(N)=O
2. CS(=O)(=O)N(CC1CC1)c1ccc(CC(=O)N2CCN(c3ncnc4sc(CC(F)(F)F)cc34)CC2)cc1
3. FC(F)(F)Cc1cc2c(NCC3CCN(Cc4ccccc4Cl)CC3)ncnc2s1
4. FC(F)(F)Cc1cc2c(NC3CCN(Cc4c[nH]c5ccccc45)CC3)ncnc2s1

Result ::
1. > 7.00
2. 5.70 to 6.30
3. 6.30 to 7.00
4. 6.30 to 7.00

* * *

- STUDY SYSTEM: menin-MLL interaction (Homo sapiens, UniProt O00255)
- METHOD NOTES: biochemical
MEASURED QUANTITY: IC50

Worked set:
{"COMPOUND": "N#Cc1cc2cc(CN3CCC(Nc4ncnc5sc(CC(F)(F)F)cc45)C(N)C3)ccc2n1CC1CC1 (centres unmarked)", "MEASURED QUANTITY": "IC50", "OBSERVED VALUE": "< 100 nM"}
{"COMPOUND": "O=C(N1CCCCC1)N1CCN(c2ncnc3sc(CC(F)(F)F)cc23)CC1", "MEASURED QUANTITY": "IC50", "OBSERVED VALUE": "500 to 2000 nM"}
{"COMPOUND": "N[C@H]1CN(Cc2ccccc2)CC[C@@H]1Nc1ncnc2sc(CC(F)(F)F)cc12", "MEASURED QUANTITY": "IC50", "OBSERVED VALUE": "100 to 500 nM"}
{"COMPOUND": "N#Cc1cc2cc(CN3CCC(Nc4ncnc5sc(CC(F)(F)F)cc45)CC3)ccc2n1Cc1cc(OCCC2CC2)n[nH]1", "MEASURED QUANTITY": "IC50", "OBSERVED VALUE": "100 to 500 nM"}
{"COMPOUND": "FC(F)(F)Cc1cc2c(NC3CCN(Cc4ccccc4)CC3)ncnc2s1", "MEASURED QUANTITY": "IC50", "OBSERVED VALUE": "100 to 500 nM"}

Respectfully, I request IC50 for each entry included below.
1. NS(=O)(=O)Cc1ccc(CC(=O)N2CCN(c3ncnc4sc(CC(F)(F)F)cc34)CC2)c(F)c1
2. N#Cc1cc2cc(CN3CCC(Nc4ncnc5sc(CC(F)(F)F)cc45)CC3)ccc2n1Cc1nc[nH]n1
3. CO[C@H](CO)Cn1c(C#N)cc2cc(CN3CCC(Nc4ncnc5sc(CC(F)(F)F)cc45)CC3)ccc21
4. O=C(Cc1ccccc1Cl)N1CCN(c2ncnc3sc(CC(F)(F)F)cc23)CC1
5. Cc1c(CN2CCC(Nc3ncnc4sc(CC(F)(F)F)cc34)CC2)ccc2c1cc(C#N)n2Cc1cc(O)n[nH]1
6. CS(=O)(=O)Nc1ccc(CC(=O)N2CCN(C3=NC=NC4SC(CC(F)(F)F)=CC34)CC2)c(Cl)c1 (centres unmarked)
7. NS(=O)(=O)c1ccc(CN2CCC(CNc3ncnc4sc(CC(F)(F)F)cc34)CC2)c(Cl)c1

Result ::
100 to 500 nM
< 100 nM
< 100 nM
100 to 500 nM
< 100 nM
< 100 nM
100 to 500 nM

Would you mind listing IC50 for each of the following compounds?
1. N#Cc1cc2cc(CN3CCC(Nc4ncnc5sc(CC(F)(F)F)cc45)CC3)ccc2n1CC(N)=O
2. Cc1c[nH]c(CCC(O)(CO)Cn2c(C#N)cc3c(C)c(CN4CCC(Nc5ncnc6sc(CC(F)(F)F)cc56)CC4)ccc32)n1 (centres unmarked)

Result ::
1. < 100 nM
2. < 100 nM

// for each compound below, give its IC50
1. CCCc1cc2c(NC3CCN(Cc4ccccc4)CC3)ccnc2s1
2. Cc1c(CN2CCC(Nc3ncnc4sc(CC(F)(F)F)cc34)CC2)ccc2c1cc(C#N)n2CCN1CCSCC1

Result ::
["500 to 2000 nM", "< 100 nM"]

Items follow; give IC50 for each.
1. COCCOCC(O)(CO)Cn1c(C#N)cc2c(C)c(CN3CCC(Nc4ncnc5sc(CC(F)(F)F)cc45)CC3)ccc21 (centres unmarked)
2. N#Cc1cc2c(CCO)c(CN3CCC(Nc4ncnc5sc(CC(F)(F)F)cc45)CC3)ccc2[nH]1
3. Cc1c(CN2CCC(Nc3ncnc4sc(CC(F)(F)F)cc34)CC2)ccc2c1cc(C#N)n2CC1CCC(=O)N1 (centres unmarked)
4. Cc1c(CC(F)(F)F)sc2ncnc(N3CCN(c4nnc(C(F)(F)F)s4)CC3)c12

Result ::
1. < 100 nM
2. < 100 nM
3. < 100 nM
4. 100 to 500 nM
